Conditions: 20.0 µM
# maps each entry to its relative solubility at 20 uM
Would you mind answering with just the numeric figure?

Below: 4 compounds and their reported relative solubility at 20 uM.
{"columns": ["compound", "relative solubility at 20 uM"],
 "data": [
  ["COc1ccccc1OCCNC(=O)c1cc(=O)[nH]c2ccc(Cl)cc12", 0.93],
  ["Cc1ccnc(C)c1NC(=O)C(C)c1ccc(F)c(F)c1 (configuration not stated)", 1],
  ["O=C(Nc1cnccc1Cl)c1cccc(Cl)c1", 1],
  ["Cc1ccncc1NC(=O)C12CC(CO1)C2", 1]
]}

Sample O=C(NCc1cccnn1)NC(Cc1ccccc1)c1cccs1 (configuration not stated) ; relative solubility at 20 uM observed: 1

According to the records, this compound Cc1csc(C(=O)N/N=C/c2cccnc2)c1N displays relative solubility at 20 uM of 0.99

Summary for this compound, C=CC(=O)N(c1ccc(C(C)(C)C)cc1)C(C(=O)NC1CCCC1)c1cccnc1 (configuration not stated) : relative solubility at 20 uM is 1.01

O=C(NCc1cccnc1)Nc1cccc(OCC(F)F)n1 yielded relative solubility at 20 uM of 1

According to the records, this compound C=CC(=O)N1CCC(N(Cc2ccccc2C#N)C2CCC(O)CC2)CC1 (configuration not stated) displays relative solubility at 20 uM of 0.99

Lab note: Cc1cccc(NC(=O)C(C#N)C(=O)C2CC2)c1 (configuration not stated) gave relative solubility at 20 uM of 0.99

relative solubility at 20 uM recorded for this compound, CC(NC(=O)C(Cc1ccccc1)NC(=O)c1ccco1)c1ncco1 (configuration not stated) , is 1

Just so you know, measured relative solubility at 20 uM for O=C(Nc1cccnc1)c1cc(Cl)ccc1-c1ccccc1 came out at 1
